Biological target: FGFR2 (Homo sapiens)
Assay: FGFR wild type enzyme assay (HTRF KinEASE-TK), FGFR2
Details: Enz FGFR2 (nM), FGFR2 wild type enzyme assay
QUANTITY: IC50 (nM)

Answered examples (5):
Cc1c(-c2cc(Sc3ccc(F)cc3C#N)c3c(C#N)cnn3c2)cnn1[C@H]1CCC[C@@H](O)C1 | 2
N#Cc1cc(F)ccc1Sc1cc(-c2ccc(N3CCC(O)CC3)nc2)cn2ncc(C#N)c12 | 1
COC(=O)N[C@]1(C)CC[C@H](n2ncc(-c3cc(Sc4ccc(F)cc4C#N)c4c(C#N)cnn4c3)c2C)CC1 | 3
N#Cc1ccccc1Sc1cc(-c2cnn([C@@H]3CCCN(C(=O)CO)C3)c2)cn2ncc(C#N)c12 | 1
CN1C[C@@H](n2cc(-c3cc(Sc4ccccc4C#N)c4c(C#N)cnn4c3)cn2)CCC1=O | 1

[P] CC(C)(C)n1cc(-c2cc(Sc3ccccc3C#N)c3c(C#N)cnn3c2)cn1
[Q] CN(CCO)c1ccc(-c2cc(Sc3ccc(F)cc3C#N)c3c(C#N)cnn3c2)cn1
[R] Cc1nn([C@H]2CCCNC2)cc1-c1cc(Sc2ccccc2C#N)c2c(C#N)cnn2c1
Arrange by IC50, high to low. Answer by listing the labels in the order asked for. R, Q, P

###

Target: FGFR2 (Homo sapiens, UniProt P21802)
Sequence (P21802 399-821 limits assumed): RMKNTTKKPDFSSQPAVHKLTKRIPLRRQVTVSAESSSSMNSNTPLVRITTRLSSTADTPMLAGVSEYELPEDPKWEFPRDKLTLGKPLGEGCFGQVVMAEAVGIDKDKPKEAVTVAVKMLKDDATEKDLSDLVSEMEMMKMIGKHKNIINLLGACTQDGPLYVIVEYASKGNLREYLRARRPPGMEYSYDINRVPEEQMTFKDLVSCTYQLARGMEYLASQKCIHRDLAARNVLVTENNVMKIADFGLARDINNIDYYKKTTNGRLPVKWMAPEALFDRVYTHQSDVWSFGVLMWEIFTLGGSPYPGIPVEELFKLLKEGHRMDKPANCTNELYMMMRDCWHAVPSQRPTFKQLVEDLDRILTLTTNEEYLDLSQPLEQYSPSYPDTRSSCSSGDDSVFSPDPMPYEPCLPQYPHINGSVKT
Assay: FGFR wild type enzyme assay (HTRF KinEASE-TK), FGFR2
Conditions: Enz FGFR2 (nM)
QUANTITY: IC50 (nM)

Answered examples (2):
Cc1cc(F)cc(Sc2cc(-c3cnn([C@H]4CCCNC4)c3)cn3ncc(C#N)c23)n1 [Example 78] | 27
Cc1c(-c2cc(Sc3ccccc3C#N)c3c(C#N)cnn3c2)cnn1[C@H]1CCNC1 [Example 122] | 1

[1] Cc1nc(Sc2cc(-c3cnn(C4CCNCC4)c3C)cn3ncc(C#N)c23)ccc1F [Example 114]
[2] Cc1c(-c2cc(Sc3ncccc3F)c3c(C#N)cnn3c2)cnn1C1CCNCC1 [Example 101]
Rank 1 against 2 by their IC50 values and give the higher one. Answer with the label corresponding to your selection. 1

###

Target: FGFR2 (Homo sapiens, UniProt P21802)
Assay: FGFR wild type enzyme assay (HTRF KinEASE-TK), FGFR2
Conditions: Enz FGFR2 (nM), FGFR2 wild type enzyme
QUANTITY: IC50 (nM)

Answered examples (5):
CC(=O)N1CCC[C@H](n2ncc(-c3cc(Sc4ncccc4F)c4c(C#N)cnn4c3)c2C)C1 | 2
CC(=O)N1C[C@H]2C[C@H](n3ncc(-c4cc(Sc5ncccc5F)c5c(C#N)cnn5c4)c3C)C[C@H]2C1 | 2.5
Cc1c(-c2cc(Sc3ccccc3F)c3c(C#N)cnn3c2)cnn1[C@@H]1CCCNC1 | 4
Cc1c(-c2cc(Sc3ncccc3F)c3c(C#N)cnn3c2)cnn1[C@H]1CC[C@@H](NC(C)C)CC1 | 1
Cc1c(-c2cc(Sc3ncccc3F)c3c(C#N)cnn3c2)cnn1[C@H]1CC[C@@H](N(C)S(C)(=O)=O)CC1 | 3

[1] Cc1c(-c2cc(Sc3ncccc3F)c3c(C#N)cnn3c2)cnn1[C@H](C)[C@H](O)CO
[2] CC(=O)N1CC[C@]2(CC[C@H](n3ncc(-c4cc(Sc5ccccc5C#N)c5c(C#N)cnn5c4)c3C)CC2)C1
Rank 1 against 2 by their IC50 values and give the higher one. Answer with the label corresponding to your selection. 1

###

Target: FGFR2 (Homo sapiens)
Assay: FGFR wild type enzyme assay (HTRF KinEASE-TK), FGFR2
Details: Enz FGFR2 (nM), FGFR2 wild type enzyme
QUANTITY: IC50 (nM)

[1] Cc1c(-c2cc(Sc3ccccc3C#N)c3c(C#N)cnn3c2)cnn1[C@H]1CC[C@@](C)(O)CC1
[2] CC(=O)N1[C@@H]2CC[C@H]1C[C@@H](n1ncc(-c3cc(Sc4ncccc4F)c4c(C#N)cnn4c3)c1C)C2
[3] Cc1c(-c2cc(Sc3ccccc3C#N)c3c(C#N)cnn3c2)cnn1[C@H]1CC[C@@H](N(C)CCO)CC1
[4] CC(=O)N1C2CCC1CC(n1ncc(-c3cc(Sc4ncccc4F)c4c(C#N)cnn4c3)c1C)C2 (centres unmarked)
[5] Cc1c(-c2cc(Sc3ccc(F)cn3)c3c(C#N)cnn3c2)cnn1[C@H]1C[C@H]2CC[C@@H](C1)N2C(=O)CO
From the items above, give an ordering by IC50 that starts at the lowest reported number. Answer by listing the labels in the order asked for. 3, 1, 4, 2, 5
(3: 0.4 nM, 1: 1 nM, 4: 2 nM, 2: 3 nM, 5: 6 nM)

###

Molecular target: UniProtKB P21802
Assay: FGFR wild type enzyme assay (HTRF KinEASE-TK), FGFR2
Conditions: Enz FGFR2 (nM), FGFR2 wild type enzyme assay
QUANTITY: IC50 (nM)

Answered examples (6):
N#Cc1ccccc1Sc1cc(-c2cnn(C3CCS(=O)(=O)CC3)c2)cn2ncc(C#N)c12 [Example 367] | 0.4
N#Cc1ccccc1Sc1cc(-c2cnn(C3CCC3)c2)cn2ncc(C#N)c12 [Example 624] | 1
CN(C)c1ccc(-c2cc(Sc3ccccc3C#N)c3c(C#N)cnn3c2)cn1 [Example 580] | 1
C[C@H](O)CN1CC[C@H](n2cc(-c3cc(Sc4ccccc4C#N)c4c(C#N)cnn4c3)cn2)C1 [Example 677] | 0.3
Cc1c(-c2cc(Sc3ccc(F)cc3C#N)c3c(C#N)cnn3c2)cnn1CC(C)(C)O [Example 486] | 9
N#Cc1ccccc1Sc1cc(-c2cnn(C3CCOCC3)c2)cn2ncc(C#N)c12 [Example 542] | 0.4

[A] Cc1nn([C@H]2CCCN(C(=O)CO)C2)cc1-c1cc(Sc2ccc(F)cc2C#N)c2c(C#N)cnn2c1 [Example 426]
[B] N#Cc1ccccc1Sc1cc(-c2cnn(C[C@H](O)CO)c2)cn2ncc(C#N)c12 [Example 544]
Rank A against B by their IC50 values and give the higher one. Answer with the label corresponding to your selection. A
(A: 4 nM, B: 1 nM)

###

Target: UniProt:P21802
Assay: FGFR wild type enzyme assay (HTRF KinEASE-TK), FGFR2
Conditions: Enz FGFR2 (nM), FGFR2 wild type enzyme assay
QUANTITY: IC50 (nM)

Answered examples (2):
N#Cc1ccccc1Sc1cc(-c2cnn([C@@H]3CCCC[C@H]3O)c2)cn2ncc(C#N)c12 | 1
Cc1nc(Sc2cc(-c3cnn([C@H]4CCCNC4)c3)cn3ncc(C#N)c23)c(F)cc1F | 1

[P] COC(=O)N1CC[C@H](n2cc(-c3cc(Sc4ccccc4C#N)c4c(C#N)cnn4c3)cn2)C1
[Q] N#Cc1nn([C@H]2CCCNC2)cc1-c1cc(Sc2ncccc2F)c2c(C#N)cnn2c1
[R] Cn1cc(-c2cc(Sc3ncccc3F)c3c(C#N)cnn3c2)c(N)n1
[S] Cc1c(-c2cc(Sc3ccc(F)cc3C#N)c3c(C#N)cnn3c2)cnn1[C@H]1CCCN(S(C)(=O)=O)C1
Arrange by IC50, high to low. Answer by listing the labels in the order asked for. Q, R, S, P

[A] CC(C)(O)Cn1cc(-c2cc(Sc3ncccc3F)c3c(C#N)cnn3c2)cn1
[B] COC(=O)N1CCC[C@H](n2cc(-c3cc(Sc4ncccc4F)c4c(C#N)cnn4c3)cn2)C1
[C] CC(=O)N1CCN(c2nnc(-c3cc(Sc4ccccc4C#N)c4c(C#N)cnn4c3)s2)CC1
[D] N#Cc1cnn2cc(-c3cn([C@H]4CCNC4)nn3)cc(Sc3ncccc3F)c12
// ascending sort on recorded IC50 Answer by listing the labels in the order asked for. B, A, C, D
(B: 1 nM, A: 2 nM, C: 6 nM, D: 11 nM)

[P] CC(=O)N[C@H]1CC[C@@H](n2ncc(-c3cc(Sc4nc(N)ccc4F)c4c(C#N)cnn4c3)c2C)CC1
[Q] CC(=O)N[C@H]1CC[C@H](n2cc(-c3cc(Sc4ccccc4C#N)c4c(C#N)cnn4c3)cn2)C1
// select label with min value of measured IC50 from [ P , Q ] Answer with the label corresponding to your selection. Q
(Q: 0.5 nM, P: 1 nM)

[P] CC(=O)N1CC[C@@H](n2cc(-c3cc(Sc4ccccc4C#N)c4c(C#N)cnn4c3)cn2)[C@H](O)C1
[Q] N#Cc1ccccc1Sc1cc(-c2ccc(N3CCOCC3)nc2)cn2ncc(C#N)c12
Rank P against Q by their IC50 values and give the higher one. Answer with the label corresponding to your selection. Q
(Q: 1 nM, P: 0.4 nM)

[a] N#Cc1cnn2cc(-c3ccc(N4C[C@@H](O)[C@H](O)C4)nc3)cc(Sc3ncccc3F)c12
[b] CC(=O)N1CCC(n2ncc(-c3cc(Sc4nccc(C)c4F)c4c(C#N)cnn4c3)c2C)CC1
// select label with min value of measured IC50 from [ a , b ] Answer with the label corresponding to your selection. a
(a: 3 nM, b: 14 nM)

Each recorded value in this set is attributed to patent US20240270741A1.
